Assay: Growth inhibition of HUVEC at 25 uM after 24 hrs by MTT assay relative to control
Assay type: cell-based
Details: human, HUVEC cells; read-out: GI
List of inhibition at 24 h, 25 µM values.
observable: inhibition at 24 h, 25 µM (%)

[
  {
    "structure-string": "CNC(=O)c1cc(Oc2ccc(NC(=O)Nc3ccc(Cl)c(C(F)(F)F)c3)cc2)ccn1",
    "observable": "inhibition at 24 h, 25 µM",
    "observed-measurement": 41.4
  },
  {
    "structure-string": "O=C1COc2ccccc2N1Cc1cn(CCC2OCCO2)nn1",
    "observable": "inhibition at 24 h, 25 µM",
    "observed-measurement": 23.8
  }
]
